# targetOfAssay: PLK3 (human)
# testName: KINOMEscan competition binding
# testConditions: compound 10.0 µM

smilesRepresentation	kinase still bound, per cent of control, %
Cn1cc(C2=C(c3ccc(Cl)cc3Cl)C(=O)NC2=O)c2ccccc21	97
COc1ccc(CNC(=O)Nc2ncc([N+](=O)[O-])s2)cc1	100
Cc1cnc(-c2cnc(NCCNc3ccc(C#N)cn3)nc2-c2ccc(Cl)cc2Cl)[nH]1	80
O=C1Nc2cc(Br)ccc2/C1=C1/Nc2ccccc2/C1=N\O	100

----------
# targetOfAssay: ADCK3 (human)
# testName: KINOMEscan competition binding
# testConditions: compound 10.0 µM
Overview of reported kinase still bound, per cent of control across a group of compounds:
measure: kinase still bound, per cent of control

smilesRepresentation	val
Cn1cc(C2=C(c3ccc(Cl)cc3Cl)C(=O)NC2=O)c2ccccc21	100%
Cc1cnc(-c2cnc(NCCNc3ccc(C#N)cn3)nc2-c2ccc(Cl)cc2Cl)[nH]1	100%
O=C1Nc2cc(Br)ccc2/C1=C1/Nc2ccccc2/C1=N\O	80%
COc1ccc(CNC(=O)Nc2ncc([N+](=O)[O-])s2)cc1	100%

Data provenance: the kinase profiling compilation of Christmann-Franck et al. (2016)
